Tested on: MOLT-4 leukemia
Test summary: NCI-60 one-dose screen, 48 h (100 = growth as untreated, 0 = no growth, -100 = all killed)
Run conditions: 10 µM unless noted
Procedure: Growth inhibition of the MOLT-4 human tumor cell line is measured as a screen for anti-cancer activity. Cells are grown in 96 well plates and exposed to the test compound for 48 hours. Compounds are tested at a single concentration, which is 10^-5 M for most compounds. The reported endpoint is percent growth (GI% or GIPRCNT), where numbers from 0 - 100% represent growth inhibition, and numbers from -100% - 0 represent cell death. For example, a value of 40 represents 60% growth inhibition. […]
Compounds without any hit were thinned out: in the full panel of roughly 83,000, 20% have a hit.
# reported growth; entries follow
Property measured: growth (%)

1. Cc1cc(C)cc(OCC(=O)O)c1    124
2. Cc1cccc(-[n+]2noc(N)n2)c1    72.8
3. O=[n+]1ccn([O-])c2ccccc21    102
4. O=C1NCC2CCCC1C2 (configuration not stated)    103
5. O=c1[nH]c(=O)c2cc(Cl)cc(Cl)c2[nH]1    95.7
6. NC(=S)N/N=C/c1ccc(Cl)cc1    88.4
7. COc1cc(CC#N)c([N+](=O)[O-])cc1OC    94.6
8. C=CCC(OC(C)=O)c1ccc(OC)c(OC)c1 (configuration not stated)    -29
9. CCCCCCCCCCCCCC/C=C\C(CC(=O)O)C(=O)O (configuration not stated)    115
10. COc1ccc(/C=C\C(=O)/C=C/c2ccc(OC)cc2)cc1    68.2
11. OCC1CCC(O)C(CO)N1 (configuration not stated)    106
12. COC(=O)C1(CC(C)=O)NC(=S)NC(=O)C1C#N (configuration not stated)    108
13. COC1CC(OC(=O)c2ccc([N+](=O)[O-])cc2)C(COC(=O)c2ccc([N+](=O)[O-])cc2)O1 (configuration not stated)    103
14. C1Cc2onc(-c3noc4c3CCC4)c2C1    110
15. CCC(=O)Oc1ccc2ccccc2c1    99
16. COC1OC(C(COC(C)=O)OC(C)=O)C(OC(C)=O)C(OC(C)=O)C1OC(C)=O (configuration not stated)    93.5
17. COc1cc(N)c2ncccc2c1Cl    93.3
